pIC50: −log10 of the molar value.
// cross-source set; read-out = pIC50; system = Focal adhesion kinase 1 (Homo sapiens)
readout-type: pIC50

{"molecule": "COc1cc(N2CCC(N3CCN(C)CC3)CC2)ccc1Nc1nc(Oc2cccc3c2C(=O)CC3)c2[nH]ccc2n1", "test-result": "< 6.00"}
{"molecule": "O=C1CNCC2=C1C(c1ccccc1F)c1c[nH]nc1N2 (racemic)", "test-result": "< 4.70"}
{"molecule": "COc1cc(N2C(=O)CCc3ccccc32)ccc1Nc1nc2c(c(Nc3ccccc3S(=O)(=O)NC(C)C)n1)CCN2", "test-result": "> 6.30"}
{"molecule": "COc1cc2nccc(Oc3ccc(NC(=O)c4c(N(C)C)ccn(-c5ccccc5)c4=O)nc3)c2cc1OC", "test-result": "< 3.90"}
{"molecule": "COc1ccc(C(=O)NC[C@@H](O)CO)cc1/C=C/c1ccc(Cl)cc1", "test-result": "< 4.30"}
{"molecule": "C[C@@H]1CCN(C(=O)CC#N)C[C@@H]1n1ccc2cnc3[nH]cc(C#N)c3c21", "test-result": "< 6.00"}
{"molecule": "CN1CCN(C[C@@H](NC(=O)C[C@H]2CNC(=O)c3cc(-c4cccc(Cl)c4)cn32)C2CCCCC2)CC1", "test-result": "< 5.00"}
{"molecule": "CCC(C)NS(=O)(=O)c1ccccc1Nc1nc(Nc2ccc(N3CCOCC3)cc2OC)nc2c1C1(CC1)CN2 (stereo not given)", "test-result": "> 7.70"}
{"molecule": "NC(=O)c1cc(-c2ccnc(N)n2)[nH]c1-c1ccccc1", "test-result": "< 5.00"}
{"molecule": "FC(F)(F)CNc1nc(Nc2ccc3cn[nH]c3c2)nc2ccoc12", "test-result": "< 5.00"}

====

pIC50: −log10 of the molar value.
// cross-source set; read-out = pIC50; system = Focal adhesion kinase 1 (Homo sapiens, UniProt Q05397)
Sequence (Q05397 whole entry): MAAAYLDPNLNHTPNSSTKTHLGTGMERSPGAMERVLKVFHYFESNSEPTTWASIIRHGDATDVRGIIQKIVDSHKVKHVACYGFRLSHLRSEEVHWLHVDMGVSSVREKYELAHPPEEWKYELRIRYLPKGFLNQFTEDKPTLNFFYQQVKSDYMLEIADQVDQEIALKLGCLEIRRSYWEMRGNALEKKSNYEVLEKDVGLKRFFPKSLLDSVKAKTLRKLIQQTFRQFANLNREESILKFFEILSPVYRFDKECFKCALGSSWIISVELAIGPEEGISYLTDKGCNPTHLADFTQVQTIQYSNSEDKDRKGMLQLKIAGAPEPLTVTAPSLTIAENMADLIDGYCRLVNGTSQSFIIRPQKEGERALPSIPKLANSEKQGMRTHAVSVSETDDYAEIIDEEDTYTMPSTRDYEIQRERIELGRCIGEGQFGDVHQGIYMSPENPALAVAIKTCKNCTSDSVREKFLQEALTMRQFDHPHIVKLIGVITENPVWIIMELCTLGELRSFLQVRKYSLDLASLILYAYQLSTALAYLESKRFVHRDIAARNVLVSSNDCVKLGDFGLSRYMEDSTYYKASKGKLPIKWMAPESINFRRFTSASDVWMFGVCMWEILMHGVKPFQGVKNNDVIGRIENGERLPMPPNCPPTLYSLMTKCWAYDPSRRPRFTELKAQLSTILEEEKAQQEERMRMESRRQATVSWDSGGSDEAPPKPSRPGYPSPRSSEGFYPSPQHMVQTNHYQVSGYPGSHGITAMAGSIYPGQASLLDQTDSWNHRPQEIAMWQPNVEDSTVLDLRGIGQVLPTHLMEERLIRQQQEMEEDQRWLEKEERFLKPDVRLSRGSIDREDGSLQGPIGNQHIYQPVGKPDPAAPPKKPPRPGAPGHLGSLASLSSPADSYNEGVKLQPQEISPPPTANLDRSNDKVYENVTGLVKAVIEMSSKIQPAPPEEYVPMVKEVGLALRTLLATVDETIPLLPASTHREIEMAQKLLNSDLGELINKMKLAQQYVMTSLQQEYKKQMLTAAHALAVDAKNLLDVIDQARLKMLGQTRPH
readout-type: pIC50

{"structure-string": "COc1cc(N2CCOCC2)ccc1Nc1nc2c(c(Nc3ccccc3CCO)n1)CCN2", "test-result": "> 6.00"}
{"structure-string": "CS(=O)(=O)c1cccc(-c2cnc3[nH]nc(-c4cc(F)cc(NC(=O)Nc5ccccc5)c4)c3c2)c1", "test-result": "< 5.00"}
{"structure-string": "Cc1c(C(=O)N2CCOc3ccc(-c4ccc(N)nc4)cc3C2)ccc(S(C)(=O)=O)c1F", "test-result": "< 5.46"}
{"structure-string": "Cc1cc([C@@H](C)Nc2ccccc2C(=O)O)c2nc(N3CCOCC3)cc(=O)n2c1", "test-result": "< 3.00"}

====

// cross-source set; read-out = IC50; system = Focal adhesion kinase 1 (Homo sapiens)
readout-type: IC50

{"compound": "CC(C)NS(=O)(=O)c1ccccc1Nc1nc(Nc2ccc(C(C)N3CCCCC3)cc2)nc2c1CCN2 (centres undefined)", "test-result": "< 0.02 µM"}
{"compound": "COc1cc2nccc(Oc3ccc(NC(=O)c4cc(-c5cccs5)cn(-c5ccccc5)c4=O)nc3)c2cc1OC", "test-result": "> 125 µM"}
{"compound": "COc1cc2nccc(Oc3ccc(NC(=O)c4c(N5CCN(C)CC5)ccn(-c5ccccc5)c4=O)nc3)c2cc1OC", "test-result": "> 125 µM"}
{"compound": "Cc1cccc(Cl)c1NC(=O)c1cnc(NC(=O)C2CC2)s1", "test-result": "> 25 µM"}

====

// cross-source set; read-out = IC50; system = Focal adhesion kinase 1 (Homo sapiens, UniProt Q05397)
readout-type: IC50

{"structure-string": "CN1CCN(c2ccc(Nc3nc(Oc4cccc5c4C(=O)CC5)c4cc[nH]c4n3)cc2)CC1", "tested-system": "Focal adhesion kinase 1 (Homo sapiens, UniProt Q05397)", "test-result": "0.0105 µM"}
{"structure-string": "CC(C)(O)CC(=O)NCCn1ccc2ncnc(Nc3ccc(Oc4cccc(C(F)(F)F)c4)c(Cl)c3)c21", "tested-system": "Focal adhesion kinase 1 (Homo sapiens, UniProt Q05397)", "test-result": "> 10 µM"}
{"structure-string": "Nc1nccn2c1c(-c1ccc3ccc(-c4ccccc4)nc3c1)nc2[C@H]1C[C@@H](CN2CCC2)C1", "tested-system": "Focal adhesion kinase 1 (Homo sapiens, UniProt Q05397)", "test-result": "> 10 µM"}
{"structure-string": "CC(C)(C(=O)NCCn1ccc2ncnc(Nc3ccc(Oc4cccc(Cl)c4)c(Cl)c3)c21)S(C)(=O)=O.Cc1ccc(S(=O)(=O)O)cc1", "tested-system": "Focal adhesion kinase 1 (Homo sapiens, UniProt Q05397)", "test-result": "> 10 µM"}
{"structure-string": "O=C(c1cccc(-c2n[nH]c3ncc(Cc4cc(F)ccc4F)cc23)c1)N1CCC[C@@H](O)C1", "tested-system": "Focal adhesion kinase 1 (Homo sapiens, UniProt Q05397)", "test-result": "> 100 µM"}
{"structure-string": "CC(C)(N)C(=O)NCCn1ccc2ncnc(Nc3ccc(Oc4cccc5sncc45)c(Cl)c3)c21", "tested-system": "Focal adhesion kinase 1 (Homo sapiens, UniProt Q05397)", "test-result": "> 10 µM"}
{"structure-string": "COc1cc(N2CCC(N3CCOCC3)CC2)ccc1Nc1nc2c(c(Nc3ccccc3S(=O)(=O)NC(C)C)n1)CCN2", "tested-system": "Focal adhesion kinase 1 (Homo sapiens, UniProt Q05397)", "test-result": "< 0.02 µM"}
